Provenance of the data: ChEMBL document CHEMBL1142889

So I've got a bunch of compounds here, and I need their IC50 values.
tested on: PC-3; test: Antiproliferative activity against PC3 cells after 72 hrs by MTT assay; assay type: functional, cell-based; conditions: Homo sapiens, PC-3, 72 h
Numbers only, in mg/L.

Answered examples (2):
compound="CCOC12SN(c3ccc(NC(C)=O)cc3Cl)N=C1c1ccccc1OC2(OCC)c1ccc(Cl)cc1 (racemic)" quantity=IC50 readout_unit=mg/L observed_value=4.1
compound="COc1cc(OC)c2c(c1Cl)OC(OC)(c1ccc(Cl)cc1)C1(OC)SN(c3ccc([N+](=O)[O-])cc3Cl)N=C21 (racemic)" quantity=IC50 readout_unit=mg/L observed_value=2.9

Please find the next compound below.
Asked: Request the reported IC50 associated with CCOC12SN(c3ccc([N+](=O)[O-])cc3Cl)N=C1c1c(OC)cc(OC)c(Cl)c1OC2(OCC)c1ccc(Cl)cc1 (racemic)
Given back: 15.8
